Source: paper PMC5540273

System: EPHA1;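 note: KINOMEscan kinase panel screen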
Conditions: concentration: 1 μM, replicates: in singlicate; n = 1
Everything with %Inh lower than 4% is Criterion not met; everything else, including exactly 4%, is Criterion met.

# check: %Inh of Fc1cc(Cl)ccc1Nc1ccnc2cc(-c3ccc(CN4CCOCC4)o3)ccc12 is greater than or equal to 4%
Criterion met

Param item: CN(c1ccc2c(c1)nc(NCc1ccccc1)n2C)c1ccnc(Nc2ccc(CS(C)(=O)=O)cc2)n1.Cl
Criterion not met

Param item: N#CC1(c2cccc(C(=O)Nc3cccc(Oc4ccc5nc(NC(=O)C6CC6)sc5n4)c3)c2)CC1
Criterion met

Param item: COc1cccc(CC(=O)N2CCc3cc(-c4cn(C)c5ncnc(N)c45)ccc32)c1
Criterion not met

Param item: Cc1ccc(C)c(NC(=O)Nc2ccc(C)c(-c3ccc(C(=O)Nc4ccncc4)cc3)c2)c1
Criterion not met

Param item: COC(=O)Nc1nc2ccc(Oc3ccc(CC(=O)Nc4cc(C(F)(F)F)ccc4F)cc3)cc2[nH]1
Criterion met
